Source of measurements: patent US20100016294A1

molecular target: CYP2B6 (Homo sapiens, UniProt P20813); test: Direct inhibition of CYP2B6 (Bupropion hydroxylase) activity in pooled human liver microsomes; settings: pH 7.4, probe Bupropion (hydroxylation to hydroxyBupropion)
Sequence (P20813 whole entry): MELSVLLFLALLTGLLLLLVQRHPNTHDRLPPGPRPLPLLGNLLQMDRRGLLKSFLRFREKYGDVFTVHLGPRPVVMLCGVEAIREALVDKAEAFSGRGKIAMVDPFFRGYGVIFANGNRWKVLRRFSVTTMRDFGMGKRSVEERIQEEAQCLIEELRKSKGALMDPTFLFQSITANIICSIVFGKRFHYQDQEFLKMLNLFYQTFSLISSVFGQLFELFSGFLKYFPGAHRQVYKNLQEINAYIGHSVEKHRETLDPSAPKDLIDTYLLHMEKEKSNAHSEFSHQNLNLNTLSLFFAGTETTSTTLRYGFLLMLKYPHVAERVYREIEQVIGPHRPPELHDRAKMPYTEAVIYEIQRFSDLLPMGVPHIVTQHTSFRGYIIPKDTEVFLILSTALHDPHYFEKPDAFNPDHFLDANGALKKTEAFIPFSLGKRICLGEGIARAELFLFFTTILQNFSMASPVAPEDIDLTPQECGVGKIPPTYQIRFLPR
MEASURED_QUANTITY: activity at 75 μM

Form field - read-out: activity at 75 μM; system: CYP2B6 (Homo sapiens, UniProt P20813); submitted item: S=P(N1CC1)(N1CC1)N1CC1 [Positive Control, ThioTEPA]
22.8%
